target.system: bovine mitochondrial complex I (proton-translocating NADH:ubiquinone oxidoreductase) (Bos taurus, UniProt P03887+P17694+P42026)
Construct: gene NDUFS2; with NADH-ubiquinone oxidoreductase chain 3; NADH dehydrogenase [ubiquinone]; 1 alpha subcomplex subunit 9, mitochondrial; NADH-ubiquinone oxidoreductase chain 2; NADH-ubiquinone oxidoreductase chain 4; NADH-ubiquinone oxidoreductase chain 4L; NADH-ubiquinone oxidoreductase chain 5; NADH-ubiquinone oxidoreductase chain 6; NADH-ubiquinone oxidoreductase 75 kDa subunit, mitochondrial; NADH dehydrogenase [ubiquinone] flavoprotein 1, mitochondrial; NADH dehydrogenase [ubiquinone] flavoprotein 2, mitochondrial; NADH dehydrogenase [ubiquinone] iron-sulfur protein 3, mitochondrial; NADH dehydrogenase [ubiquinone] iron-sulfur protein 8, mitochondrial
Sequence (P17694 34-463): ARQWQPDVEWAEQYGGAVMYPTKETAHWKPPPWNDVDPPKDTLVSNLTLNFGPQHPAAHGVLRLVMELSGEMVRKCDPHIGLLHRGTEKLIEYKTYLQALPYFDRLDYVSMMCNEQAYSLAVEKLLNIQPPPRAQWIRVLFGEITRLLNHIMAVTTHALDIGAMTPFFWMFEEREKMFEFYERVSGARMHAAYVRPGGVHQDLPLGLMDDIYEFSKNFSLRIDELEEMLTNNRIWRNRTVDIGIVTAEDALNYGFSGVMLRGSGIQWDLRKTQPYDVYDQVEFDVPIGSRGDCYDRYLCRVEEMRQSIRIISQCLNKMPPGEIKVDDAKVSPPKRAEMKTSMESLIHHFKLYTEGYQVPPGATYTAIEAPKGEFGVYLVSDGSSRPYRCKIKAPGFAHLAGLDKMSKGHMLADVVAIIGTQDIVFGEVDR
Sequence (P42026 38-216): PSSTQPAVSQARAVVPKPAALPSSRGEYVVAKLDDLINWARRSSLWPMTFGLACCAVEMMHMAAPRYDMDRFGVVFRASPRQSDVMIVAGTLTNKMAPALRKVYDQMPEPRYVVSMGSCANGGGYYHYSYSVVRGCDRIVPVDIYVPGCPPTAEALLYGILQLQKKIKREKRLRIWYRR
Sequence (P03887 whole entry): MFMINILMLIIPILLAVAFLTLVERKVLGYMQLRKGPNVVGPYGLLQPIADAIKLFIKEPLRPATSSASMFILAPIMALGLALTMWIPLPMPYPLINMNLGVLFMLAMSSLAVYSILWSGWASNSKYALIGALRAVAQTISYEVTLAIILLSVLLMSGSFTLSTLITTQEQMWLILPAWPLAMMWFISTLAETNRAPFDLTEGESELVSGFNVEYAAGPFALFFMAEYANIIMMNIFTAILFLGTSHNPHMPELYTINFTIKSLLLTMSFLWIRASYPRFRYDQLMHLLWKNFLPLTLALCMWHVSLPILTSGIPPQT
Sequence (P03898 whole entry partner): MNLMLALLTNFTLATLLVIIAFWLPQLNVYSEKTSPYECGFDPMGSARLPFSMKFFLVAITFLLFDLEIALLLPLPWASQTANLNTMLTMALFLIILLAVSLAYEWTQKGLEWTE
Sequence (P34943 36-380 partner): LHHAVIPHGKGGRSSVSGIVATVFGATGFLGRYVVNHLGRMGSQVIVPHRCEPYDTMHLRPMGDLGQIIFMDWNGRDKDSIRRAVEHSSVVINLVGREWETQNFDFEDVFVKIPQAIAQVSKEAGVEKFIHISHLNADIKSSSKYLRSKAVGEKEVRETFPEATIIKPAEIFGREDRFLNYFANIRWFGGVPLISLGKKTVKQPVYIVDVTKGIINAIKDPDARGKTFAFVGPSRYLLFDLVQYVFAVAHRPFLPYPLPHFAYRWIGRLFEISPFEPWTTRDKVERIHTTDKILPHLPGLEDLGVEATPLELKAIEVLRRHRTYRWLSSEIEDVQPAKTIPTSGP
method.notes: NADH:Q1 oxidoreductase inhibition, SMP, NADH absorbance at […] nm
Format: biochemical
experimental.setup: neutral pH (7.0; Figure 7 caption gives NADH-oxidase reaction, A-form); SET buffer, 25 °C, 165 μM NADH; 5-7 min preincubation
experimental.endpoint: IC50

Reported IC50 for `CCN(c1nc(N)c(C(=O)NC(=N)N)nc1Cl)C(C)C` was ~40 µM
